- System: Candida dubliniensis
- assayNotes: Antimicrobial activity against Candida dubliniensis ATCC 777 by broth dilution method
- Type: functional
measurementName: MIC (µg/mL)
One number for each entry, in µg/mL.

Previously resolved entries follow.
CC(=O)N1CCN(c2ccc(OCC3COC(Cn4ccnc4)(c4ccc(Cl)cc4Cl)O3)cc2)CC1 (centres undefined) | 12.5
O=C1c2ccccc2-c2c3c(cc4ccnc1c24)OCO3 | 50
COc1cc2ccnc3c2c(c1OC)-c1ccccc1C3=O | 100

Next compound, MIC to be filled in.
Task item: Form field: reported MIC of `COc1c(OC)c2c3c(nccc3c1OC)C(=O)c1ccccc1-2`
Reply: 12.5
